Listed next: entries and their corresponding drug sensitivity score.
Test system: Caco-2
Test: drug sensitivity score (DSS) for viability; higher = more toxic; extreme values may be limits of the assay
Conditions: 72 h
Answer using only a numeral; do not append any unit.

[
  {
    "molecule": "CCOC(=O)C1=C(C)NC(C)=C(C(=O)OC)[C@@H]1c1cccc([N+](=O)[O-])c1 (racemic)",
    "subjectOfTest": "Caco-2",
    "propertyName": "drug sensitivity score",
    "quantitativeResult": 0
  },
  {
    "molecule": "NC(=O)[C@@H]1CC[C@@H]2CN1C(=O)N2OS(=O)(=O)O",
    "subjectOfTest": "Caco-2",
    "propertyName": "drug sensitivity score",
    "quantitativeResult": 0
  },
  {
    "molecule": "C[C@H](NC(=O)/C(C#N)=C/c1ccc(O)c(O)c1)c1ccccc1",
    "subjectOfTest": "Caco-2",
    "propertyName": "drug sensitivity score",
    "quantitativeResult": 1.5
  },
  {
    "molecule": "CN1CCN(CC/C=C2/c3ccccc3Sc3ccc(S(=O)(=O)N(C)C)cc32)CC1",
    "subjectOfTest": "Caco-2",
    "propertyName": "drug sensitivity score",
    "quantitativeResult": 1.6
  },
  {
    "molecule": "Cc1ccc(S(=O)(=O)Cc2nc(-c3ccc(C(=O)NCc4cccnc4)cc3)oc2C)cc1",
    "subjectOfTest": "Caco-2",
    "propertyName": "drug sensitivity score",
    "quantitativeResult": 27.6
  },
  {
    "molecule": "NCCC(O)(P(=O)(O)O)P(=O)(O)O [pamidronate]",
    "subjectOfTest": "Caco-2",
    "propertyName": "drug sensitivity score",
    "quantitativeResult": 0
  }
]

State its drug sensitivity score on Caco-2: Cc1ccc2nc(N)[nH]c(=O)c2c1Sc1ccncc1 0.4

Could you do the same for C=C1C(=O)O[C@@H]2/C=C(\C)CC/C=C(\C)CC[C@@H]12 [costunolide] , please? 0.9

Could you do the same for c1coc(-c2nnc3sc(C4CCCCC4)nn23)c1 , please? 2.2

Could you do the same for [N-]=[N+]=CC(=O)CC[C@H](N)C(=O)O , please? 0

Could you do the same for Cc1cncc(CN2CCC(=C3c4ccc(Cl)cc4CCc4cccnc43)CC2)c1 , please? 0.7

Could you do the same for O=C1C(Cl)=C(NCCN2CCOCC2)C(=O)c2ncccc21 , please? 9.4

Could you do the same for COc1ccc(CC(=O)NC(/N=C(\NC#N)Nc2cccc3ncccc23)C(C)(C)C)cc1OC (stereo not drawn) , please? 0

Could you do the same for CC(=O)N(O)[C@@H]1c2cc(C#N)ccc2OC(C)(C)[C@H]1O , please? 0

Could you do the same for O=S(=O)(O)NC1CCCCC1 , please? 0

Could you do the same for CSCC[C@H](NC(=O)[C@H](CC(C)C)NC(=O)[C@@H](Cc1c[nH]c2ccccc12)NC(=O)[C@H](Cc1ccccc1)N(C)C(=O)[C@@H](Cc1c[nH]c2ccccc12)NC(=O)[C@@H](N)CCCNC(=N)N)C(N)=O , please? 0

Could you do the same for NC(=O)c1nc(F)cnc1O , please? 0

Could you do the same for O=C(Nc1ccc(N2CCC(C(=O)N3CCOCC3)CC2)cc1)c1cnc(Oc2ccccc2)nc1 , please? 0
